Target: 3-phosphoinositide-dependent protein kinase 1 (Homo sapiens)
Test: Inhibition of PDPK1 (unknown origin) at 1 uM by KINOMEscanning assay relative to control; values are per cent of control
Mark false (0) for residual activity values under 80%, and true (1) for everything at or above.

Some solved cases for reference:
1) COc1ccc(-c2cnc3[nH]cc(-c4ccc(OC)c(OC)c4)c3c2)cc1N ... true (1)
2) COc1cc(-c2c[nH]c3ncc(-c4cccc(N)c4)cc23)cc(OC)c1OC ... true (1)
3) COc1ccc(-c2c[nH]c3ncc(-c4ccc(C(=O)N5CCOCC5)c(N)c4)cc23)cc1OC ... false (0)

Input line: Say whether `COc1ccc(-c2cnc3[nH]cc(-c4ccc(OC)c(OC)c4)c3c2)cc1OC` shows residual activity of 80% or more.
Output line: false (0)

Input line: Say whether `COc1ccc(-c2c[nH]c3ncc(-c4cc(OC)c(OC)c(OC)c4)cc23)cc1OC` shows residual activity of 80% or more.
Output line: false (0)
